Recorded Activity by entry
# system-name: Dual specificity tyrosine-phosphorylation-regulated kinase 1A (Rattus norvegicus)
# test-protocol: Inhibition of rat DYRK1A kinase domain (1 to 499 residues) expressed in bacteria assessed as residual activity at 10 uM using KKISGRLSPIMTEQ as substrate in presence of [gamma-33P]ATP relative to control
Quick reminder: number only, in %, skip the unit.

Sample answers from the record:
O=[N+]([O-])c1c2ccncc2cc2cnc(-c3ccccc3)nc12	38
CN(C)CCNc1ncc2cc3cnccc3c([N+](=O)[O-])c2n1	17
CN1CCN(CCNc2ncc3cc4cnccc4c([N+](=O)[O-])c3n2)CC1	6
Nc1c2ccncc2cc2cnc(NCCN3CCCC3)nc12	7
O=[N+]([O-])c1c2ccncc2cc2cnc(NCCCN3CCCC3)nc12	6

Lab note: next compound to report on.
Query "CNc1ncc2cc3cnccc3c([N+](=O)[O-])c2n1" on Dual specificity tyrosine-phosphorylation-regulated kinase 1A (Rattus norvegicus); Activity returned: 13
